target_under_test: NLRP3 (Homo sapiens)
experiment_notes: THP-1 cells pyroptosis assay
Assay type: cell-based
Design: Seed THP-1 cells (25,000 cells/well) containing 1.0 μg/ml LPS; host or cells: THP-1 cells, LPS-primed, nigericin-stimulated
run_conditions: THP-1 cells, 1.0 μg/ml LPS, nigericin 5 μM, pyroptosis read with resazurin; read-out: THP IC50
Experimental: The cells were routinely passaged and grown to confluency (˜10^6 cells/ml). On the day of the experiment, THP-1 cells were harvested and resuspended into RPMI medium (without FBS). The cells were then counted and viability (>90%) checked by Trypan blue (Sigma # T8154). […] To this diluted cell solution was added LPS (Sigma # L4524) to give a 1 μg/ml Final Assay Concentration (FAC). 40 μl of the final preparation was aliquoted into each well of a 96-well plate. […]
Counter-ions that a name gives are not always drawn.
Catalogue of IC50 values

Here is how some molecules turned out for IC50.
molecule	target_under_test	recorded_measurement
COc1cc(S(=O)(=O)NC(=O)Nc2c3c(cc4c2CCC4)CCC3)ncn1 [Example 19, Potassium Salt]	NLRP3 (Homo sapiens)	< 0.8 µM
CN(C)c1cncc(S(=O)(=O)NC(=O)Nc2c3c(cc4c2CCC4)CCC3)n1 [Example 27, Potassium Salt]	NLRP3 (Homo sapiens)	< 0.8 µM
COc1ccc(S(=O)(=O)NC(=O)Nc2c3c(cc4c2CCC4)CCC3)nn1 [Example 22, Potassium Salt]	NLRP3 (Homo sapiens)	< 1.6 µM

What is its IC50 for NLRP3 (Homo sapiens)? Entry: CN1CCN(c2cncc(S(=O)(=O)NC(=O)Nc3c4c(cc5c3CCC5)CCC4)n2)CC1 [Example 54, Potassium Salt] < 2 µM

Also Cc1cc(C)nc(S(=O)(=O)NC(=O)Nc2c3c(cc4c2CCC4)CCC3)n1 [Example 18, Potassium Salt] , if possible. < 0.8 µM

Quick one: O=C(Nc1c2c(cc3c1CCC3)CCC2)NS(=O)(=O)c1nccnc1C(F)F [Example 14, potassium salt] < 2 µM

And the next one, CC(C)c1cccc(C(C)C)c1NC(=O)NS(=O)(=O)c1cnccn1 [Example 6, Sodium Salt] ? < 10 µM

* * *

target_under_test: NLRP3 (Homo sapiens)
experiment_notes: THP-1 cells pyroptosis assay
Format: cell-based
Design: Seed THP-1 cells (25,000 cells/well) containing 1.0 μg/ml LPS; host or cells: THP-1 cells, LPS-primed, nigericin-stimulated
run_conditions: THP-1 pyroptosis assay
Structures can show the parent of a compound that is named as a salt.
measure_name: NLRP3 inhibitory activity (in words)

Solved entries:
compound	NLRP3 inhibitory activity (in words)
Cc1cc(C)nc(S(=O)(=O)NC(=O)Nc2c3c(cc4c2CCC4)CCC3)n1 [Example 18, Potassium Salt]	highly active
Cc1cc(C)nc(S(=O)(=O)NC(=O)Nc2c(-c3ccnc(C#N)c3)cc(F)cc2C(C)C)n1	highly active
Cc1cc(C)nc(S(=O)(=O)NC(=O)Nc2c(-c3ccncc3)cc(F)c3c2CCC3)n1	highly active
COc1cc(-c2ccc3c(c2NC(=O)NS(=O)(=O)c2nc(C)cc(C)n2)CCC3)ccn1	highly active
Cc1cc(N(C)C)nc(S(=O)(=O)NC(=O)Nc2c3c(cc4c2CCC4)CCC3)n1 [Example 56, potassium salt]	highly active

Would you kindly look at the next entry?
What does the record list as NLRP3 inhibitory activity (in words) for COc1cc(-c2cc(F)cc(C(C)C)c2NC(=O)NS(=O)(=O)c2nc(C)cc(C)n2)ccn1 ? highly active

* * *

target_under_test: NLRP3 (Homo sapiens, UniProt Q96P20)
Sequence (Q96P20 whole entry): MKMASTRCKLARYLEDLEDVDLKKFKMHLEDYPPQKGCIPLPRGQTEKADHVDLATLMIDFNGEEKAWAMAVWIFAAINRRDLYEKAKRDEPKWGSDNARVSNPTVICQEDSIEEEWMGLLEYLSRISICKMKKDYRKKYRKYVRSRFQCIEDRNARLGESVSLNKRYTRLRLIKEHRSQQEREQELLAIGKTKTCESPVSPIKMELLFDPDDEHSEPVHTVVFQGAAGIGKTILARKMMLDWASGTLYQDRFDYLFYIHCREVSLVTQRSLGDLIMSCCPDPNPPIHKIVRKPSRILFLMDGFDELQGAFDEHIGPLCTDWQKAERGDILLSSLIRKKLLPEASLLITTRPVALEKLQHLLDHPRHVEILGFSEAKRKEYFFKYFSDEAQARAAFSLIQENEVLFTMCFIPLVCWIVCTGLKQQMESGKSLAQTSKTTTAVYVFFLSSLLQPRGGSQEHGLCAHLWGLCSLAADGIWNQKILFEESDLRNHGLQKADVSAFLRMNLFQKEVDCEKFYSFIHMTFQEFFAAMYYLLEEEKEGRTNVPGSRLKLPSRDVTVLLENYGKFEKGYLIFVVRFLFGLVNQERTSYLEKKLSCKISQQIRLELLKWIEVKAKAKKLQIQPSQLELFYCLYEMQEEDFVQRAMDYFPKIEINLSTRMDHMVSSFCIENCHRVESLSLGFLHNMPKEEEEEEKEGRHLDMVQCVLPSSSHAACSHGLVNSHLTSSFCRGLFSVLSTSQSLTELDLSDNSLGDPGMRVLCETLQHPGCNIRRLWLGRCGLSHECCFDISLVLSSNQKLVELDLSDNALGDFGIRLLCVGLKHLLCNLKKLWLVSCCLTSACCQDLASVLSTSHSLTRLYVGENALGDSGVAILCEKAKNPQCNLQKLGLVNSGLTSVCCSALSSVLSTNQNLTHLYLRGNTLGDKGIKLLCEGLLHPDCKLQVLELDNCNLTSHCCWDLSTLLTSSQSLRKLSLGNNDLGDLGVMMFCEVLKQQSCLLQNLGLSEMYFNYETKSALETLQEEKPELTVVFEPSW
experiment_notes: THP-1 cells pyroptosis assay
Assay type: cell-based
Set-up: Seed THP-1 cells (25,000 cells/well) containing 1.0 μg/ml LPS; host or cells: THP-1 cells, LPS-primed, nigericin-stimulated
run_conditions: THP-1 cells, 1.0 μg/ml LPS, nigericin 5 μM, pyroptosis read with resazurin; read-out: THP IC50
Structures can show the parent of a compound that is named as a salt.
measure_name: IC50

Some compounds with recorded IC50:
compound	measure_name	recorded_measurement
COc1cc(-c2ccc3c(c2NC(=O)NS(=O)(=O)c2nc(C)cc(C)n2)CCC3)ccn1	IC50	< 800 nM
O=C(Nc1c2c(cc3c1CCC3)CCC2)NS(=O)(=O)c1ncccn1 [Example 3, Potassium Salt]	IC50	< 1600 nM
O=C(Nc1c2c(cc3c1CCC3)CCC2)NS(=O)(=O)c1cccnn1 [Example 2, Potassium Salt]	IC50	< 2000 nM

Read the next record carefully.
Look at this compound and give its reported IC50. CN(C)c1cnc(S(=O)(=O)NC(=O)Nc2c(-c3ccncc3)cc(F)c3c2CCC3)cn1 < 800 nM

* * *

target_under_test: NLRP3 (Homo sapiens)
experiment_notes: THP-1 cells pyroptosis assay
Type: cell-based
Parameters: Seed THP-1 cells (25,000 cells/well) containing 1.0 μg/ml LPS; host or cells: THP-1 cells, LPS-primed, nigericin-stimulated
run_conditions: THP-1 cells, 1.0 μg/ml LPS, nigericin 5 μM, pyroptosis read with resazurin; read-out: THP IC50
Structures can show the parent of a compound that is named as a salt.
Reported IC50 values for a set of compounds

Worked examples follow.
compound	IC50
COc1cc(-c2cc(F)cc(C(C)C)c2NC(=O)NS(=O)(=O)c2cnc(N(C)C)cn2)ccn1	< 800 nM
CN(C)c1ccc(S(=O)(=O)NC(=O)Nc2c3c(cc4c2CCC4)CCC3)nn1 [Example 13, potassium salt]	< 1600 nM
CCOc1ccncc1S(=O)(=O)NC(=O)Nc1c2c(cc3c1CCC3)CCC2 [Example 32, Potassium Salt]	< 10000 nM
O=C(Nc1c2c(cc3c1CCC3)CCC2)NS(=O)(=O)c1cc(C(F)(F)F)cnn1 [Example 16, Potassium Salt]	< 10000 nM
CC(C)c1cc(S(=O)(=O)NC(=O)Nc2c3c(cc4c2CCC4)CCC3)ccn1 [Example 57, Sodium Salt]	< 800 nM

Entry under review: CN(C)CCNc1cnc(S(=O)(=O)NC(=O)Nc2c3c(cc4c2CCC4)CCC3)cn1 [Example 25, potassium Salt] . Reported IC50? < 800 nM

Here is the next compound: CC(C)c1cc(F)cc(-c2ccnc(C#N)c2)c1NC(=O)NS(=O)(=O)c1cc(N(C)C)cnn1 < 800 nM

* * *

target_under_test: NLRP3 (Homo sapiens, UniProt Q96P20)
experiment_notes: Human whole blood IL1β release assay
Assay type: cell-based
Set-up: Human whole blood in Li-heparin tubes was obtained from healthy donors; from tissue; host or cells: human whole blood from healthy donors, LPS-primed, nigericin-stimulated
pIC50: −log10 of the molar value.
measure_name: pIC50

Report pIC50 for COc1cc(-c2cc(F)cc(C(C)C)c2NC(=O)NS(=O)(=O)c2cc(N(C)C)cnn2)ccn1 [Example 51] tested on NLRP3 (Homo sapiens, UniProt Q96P20). > 5.60

* * *

Property: pIC50; scope: individual compounds
target_under_test: NLRP3 (Homo sapiens)
experiment_notes: THP-1 cells pyroptosis assay
Format: cell-based
Parameters: Seed THP-1 cells (25,000 cells/well) containing 1.0 μg/ml LPS; host or cells: THP-1 cells, LPS-primed, nigericin-stimulated
run_conditions: THP-1 cells, 1.0 μg/ml LPS, nigericin 5 μM, pyroptosis read with resazurin; read-out: THP IC50
pIC50: −log10 of the molar value. Where a name gives a salt, the structure may show the parent alone.

Check out these entries, answers already filled in.
compound	pIC50
COc1cc(-c2cc(F)cc(C(C)C)c2NC(=O)NS(=O)(=O)c2nc(C)cc(C)n2)ccn1	> 6.10
Cc1cc(C)nc(S(=O)(=O)NC(=O)Nc2c(-c3ccnc(C#N)c3)cc(F)cc2C(C)C)n1	> 6.10
COc1cc(-c2ccc3c(c2NC(=O)NS(=O)(=O)c2nccnc2C(F)F)CCC3)ccn1	> 5.92

Need pIC50 of O=C(Nc1c2c(cc3c1CCC3)CCC2)NS(=O)(=O)c1cncc(N2CCOCC2)n1 [Example 28, Potassium Salt] , thanks. > 6.10

Record: N#Cc1nccnc1S(=O)(=O)NC(=O)Nc1c2c(cc3c1CCC3)CCC2 [Example 24, Potassium Salt] > 5.00

Try the compound CC(C)c1cccc(C(C)C)c1NC(=O)NS(=O)(=O)c1cccnn1 [Example 7, Sodium Salt] > 5.00

Try COc1cc(-c2cc(F)cc(C(C)C)c2NC(=O)NS(=O)(=O)c2nccnc2C(F)F)ccn1 next. > 5.00

Also need Cc1ccnc(S(=O)(=O)NC(=O)Nc2c3c(cc4c2CCC4)CCC3)n1 [Example 17, Potassium Salt] , thanks. > 5.92

* * *

IC50 listing for selected molecules.
target_under_test: NLRP3 (Homo sapiens, UniProt Q96P20)
experiment_notes: Human whole blood IL1β release assay
Type: cell-based
Design: Human whole blood in Li-heparin tubes was obtained from healthy donors; from tissue; host or cells: human whole blood from healthy donors, LPS-primed, nigericin-stimulated
run_conditions: human whole blood, 1 μg/ml LPS, nigericin 10 μM, IL-1β release; read-out: HWB IC50
Structures can show the parent of a compound that is named as a salt.

molecule	IC50
CN(C)c1cncc(S(=O)(=O)NC(=O)Nc2c(-c3ccncc3)cc(F)c3c2CCC3)n1	< 2.5 µM
COc1cc(-c2ccc3c(c2NC(=O)NS(=O)(=O)c2ccnc(CN(C)C)c2)CCC3)ccn1 [Example 59, sodium salt]	< 2.5 µM

# input for lookup
Please report the recorded IC50 for COc1cc(-c2ccc3c(c2NC(=O)NS(=O)(=O)c2ccc(CN(C)C)nc2)CCC3)ccn1 . < 2.5 µM
